Target or system ROCK2 (Homo sapiens); metric IC50; compiled from varied reports.

Fill in: IC50 of COc1cc(C(=O)N[C@@H](c2ccccc2)[C@H](O)CO)ccc1-c1cn[nH]c1 is ___
1.98 nM

Fill in: IC50 of [H][C@]1(c2n[nH]c(=O)c3ccccc32)C[C@]2(C[C@@H](NC(=O)c3ccc(-n4cccn4)nc3)C2)C1 (stereo partly drawn) is ___
15.1 to 100 nM

Fill in: IC50 of O=C1N(CC2CCCCC2)CCN1c1ccc(-c2cn[nH]c2)cc1 is ___
200 to 2000 nM

* * *

Target or system ROCK2 (Homo sapiens, UniProt O75116); metric log10 IC50; compiled from varied reports.
# log10 transformed; quantity=IC50; unit=nM

Notebook entry, ROCK2 (Homo sapiens, UniProt O75116) assay: log10 IC50 of O=C(OC1CCC(F)(F)CC1)N1CCc2cc(-c3nccc(Nc4ccc(-c5cn[nH]c5)cc4)n3)ccc2C1 = ?
2.65

Notebook entry, ROCK2 (Homo sapiens, UniProt O75116) assay: log10 IC50 of COc1nc(O[C@H]2CC3(C[C@H](NC(=O)c4cnn(-c5ccc(C#N)cc5)c4C)C3)C2)c(C(N)=O)s1 (stereo partly drawn) = ?
2.31

Notebook entry, ROCK2 (Homo sapiens, UniProt O75116) assay: log10 IC50 of COc1cccc(C(=O)N2CCC3(CC2)CN(c2ccc(-c4cn[nH]c4)cc2)C3=O)c1 = ?
2.45

Notebook entry, ROCK2 (Homo sapiens, UniProt O75116) assay: log10 IC50 of Cc1sc(NC(=O)Cc2ccc(Oc3ncccc3C(N)=O)c(F)c2)nc1-c1ccc(F)nc1 = ?
2.25

Notebook entry, ROCK2 (Homo sapiens, UniProt O75116) assay: log10 IC50 of Cn1cc(C(N)=O)c(O[C@H]2C[C@@]3(C[C@H](NC(=O)c4cnn5cc(N6CC7(COC7)C6)ccc45)C3)C2)n1 (stereo partly drawn) = ?
2.54

Notebook entry, ROCK2 (Homo sapiens, UniProt O75116) assay: log10 IC50 of CC(C)(O)CC1NC(=O)N([C@H]2C[C@@]3(C[C@H](Oc4ncccc4C(N)=O)C3)C2)C1=O (stereo partly drawn) = ?
2.46

Notebook entry, ROCK2 (Homo sapiens, UniProt O75116) assay: log10 IC50 of COc1cc(N2CCC3(CCN(C(=O)c4ccc(C(C)C)cc4)CC3)C2=O)ccc1-c1cn[nH]c1 = ?
1.08

* * *

Target or system UniProt:O75116; metric pIC50; compiled from varied reports.
Notebook: values listed as pIC50 are -log10 of the concentration (mol/L).

Fill in: pIC50 of COc1cc(-c2cn[nH]c2)ccc1C(=O)NC(CCN(C)C)c1ccccc1 (stereo not shown) is ___
7.82

Fill in: pIC50 of CN(CC(F)(F)F)C(=O)c1cc2ccc(-c3nccc(Nc4ccc(-c5cn[nH]c5)cc4)n3)cc2[nH]1 is ___
7.27

Fill in: pIC50 of COc1ccc(F)c(CNC(=O)c2ccc(-c3cn[nH]c3)c(C)c2)c1 is ___
7.29

Fill in: pIC50 of COC(=O)c1cccc(C(=O)Nc2ccc3c(c2)OCc2cnccc2-3)c1 is ___
6.07

Fill in: pIC50 of COc1cc(N2CCC3(CCN(C(=O)c4ccc(N5CCN(C)CC5)cc4)CC3)C2=O)ccc1-c1cn[nH]c1 is ___
9.52

Fill in: pIC50 of CN1CCN(CC(=O)n2ccc3ccc(-c4nccc(Nc5ccc6[nH]ncc6c5)n4)cc32)CC1 is ___
6.96

Fill in: pIC50 of Cc1sc(NC(=O)Cc2ccc(Oc3ncccc3C(N)=O)c(F)c2)nc1-c1cnc(N2CCN(C)CC2)nc1 is ___
6.74

Fill in: pIC50 of [H][C@]1(Oc2ncccc2C(N)=O)C[C@]2(C[C@@H](Nc3ccnc(N4CCCC(F)C4)n3)C2)C1 (stereo partly shown) is ___
6.05

Fill in: pIC50 of c1cc(Nc2ccc(-c3cn[nH]c3)nc2)nc(-c2ccc3cc(-c4nccs4)[nH]c3c2)n1 is ___
6.83

Fill in: pIC50 of O=C(NCc1ccnnc1)c1cc2ccc(-c3nccc(Nc4ccc5[nH]ncc5c4)n3)cc2[nH]1 is ___
6.77

Fill in: pIC50 of Cc1cccc(-c2nc(NC(=O)Cc3ccc(Oc4ncccc4C(N)=O)c(Cl)c3)sc2C)n1 is ___
7.39

Fill in: pIC50 of COc1cc(N2CCC3(CCN(C(=O)c4cc5ccccc5o4)CC3)C2=O)ccc1-c1cn[nH]c1 is ___
6.28

Fill in: pIC50 of O=C(NCC1CC1)c1cccc([C@@H](CO)NC(=O)c2ccc(-c3ccncc3)cc2)c1 is ___
8.92

Fill in: pIC50 of Cc1n[nH]c2ccc(-c3cccc(C(=O)NC(CO)c4cccc(F)c4)c3)cc12 (stereo not shown) is ___
7.80

Fill in: pIC50 of CC(O)c1cc(C(=O)NC(C)c2ccccc2F)ccc1-c1cn[nH]c1 (stereo not shown) is ___
7.80

Fill in: pIC50 of O=C(OCCOc1cccc(CN2CC[C@@H](Nc3cccc4cnccc34)C2)c1)c1cccnc1 is ___
6.29

* * *

Target or system ROCK2 (Homo sapiens); metric IC50; compiled from varied reports.
Express the result in µM but write the number alone.

Notebook entry, ROCK2 (Homo sapiens) assay: IC50 of CCN(CC)c1ccc(C(=O)N2CCC3(CC2)CCN(c2ccc(-c4cn[nH]c4)c(OC)c2)C3=O)cc1 = ?
0.0052

Notebook entry, ROCK2 (Homo sapiens) assay: IC50 of O=C(C1CC(F)(F)C1)N1CCc2cc(-c3ncc(F)c(Nc4ccc(-c5cn[nH]c5)cc4)n3)ccc2C1 = ?
0.275

Notebook entry, ROCK2 (Homo sapiens) assay: IC50 of COc1cc(-c2cn[nH]c2)ccc1C(=O)N[C@H](CO)Cc1ccccc1 = ?
0.0152

Notebook entry, ROCK2 (Homo sapiens) assay: IC50 of NC(=O)c1cccnc1O[C@H]1C[C@]2(C1)C[C@H](N1C(=O)NC(C[C@@H]3C[C@H]4CC[C@@H](C3)N4C(=O)OCc3ccccc3)C1=O)C2 (stereo partly drawn) = ?
0.659

Notebook entry, ROCK2 (Homo sapiens) assay: IC50 of CC(C)(C)OC(=O)NCCC1NC(=O)N([C@H]2C[C@@]3(C[C@H](Oc4ncccc4C(N)=O)C3)C2)C1=O (single isomer, unassigned) = ?
2.38

Notebook entry, ROCK2 (Homo sapiens) assay: IC50 of O=C(NC1CCOCC1)c1cc2ccc(-c3nccc(Nc4ccc(-c5cn[nH]c5)cc4)n3)cc2[nH]1 = ?
0.115

* * *

Target or system ROCK2 (Homo sapiens); metric pIC50; compiled from varied reports.
Notebook: values listed as pIC50 are -log10 of the concentration (mol/L).

Notebook entry, ROCK2 (Homo sapiens) assay: pIC50 of CS(=O)(=O)c1ccc2nc(NC(=O)Cc3ccc(Oc4ncccc4C(N)=O)cc3)sc2c1 = ?
6.48

Notebook entry, ROCK2 (Homo sapiens) assay: pIC50 of COc1ccc(Cc2nnc(NC(=O)Cc3ccc(Oc4ncccc4C(N)=O)c(F)c3)s2)cc1OC = ?
6.67

Notebook entry, ROCK2 (Homo sapiens) assay: pIC50 of NC(=O)c1cccnc1O[C@H]1C[C@]2(C1)C[C@H](N1C(=O)NC(CC3CC(F)(F)C3)C1=O)C2 (stereo partly drawn) = ?
7.32

Notebook entry, ROCK2 (Homo sapiens) assay: pIC50 of C=CC[C@@H]1CC(=O)N([C@H]2C[C@@]3(C[C@H](Oc4ncccc4C(N)=O)C3)C2)C(=O)N1 (stereo partly drawn) = ?
6.02

Notebook entry, ROCK2 (Homo sapiens) assay: pIC50 of O=C(C1CC(F)(F)C1)N1Cc2ccc(-c3nccc(Nc4ccc5[nH]ncc5c4)n3)cc2C1 = ?
7.35

Notebook entry, ROCK2 (Homo sapiens) assay: pIC50 of Cn1c(C(=O)N2CC(O)(C(F)(F)F)C2)cc2ccc(-c3nccc(Nc4ccc(-c5cn[nH]c5)cc4)n3)cc21 = ?
7.07

Notebook entry, ROCK2 (Homo sapiens) assay: pIC50 of NC(=O)c1cccnc1Oc1ccc(CC(=O)Nc2nc3cccc(F)c3n2CC2CC2)cc1F = ?
7.92

Notebook entry, ROCK2 (Homo sapiens) assay: pIC50 of COc1cc(C(=O)NC(CCN(C)C)c2ccccc2)ccc1-c1cn[nH]c1 (stereo not drawn) = ?
8.71

* * *

Target or system ROCK2 (Homo sapiens); metric IC50; compiled from varied reports.

Fill in: IC50 of [H][C@]1(c2n[nH]c(=O)c3ccccc32)C[C@]2(C[C@@H](NC(=O)c3cnc4cc(C)ccn34)C2)C1 (stereo partly drawn) is ___
2.01 to 5 nM

Fill in: IC50 of O=C(c1cc2ccc(-c3nccc(Nc4ccc(-c5cn[nH]c5)cc4)n3)cc2[nH]1)N1CCC2(C1)CC2(F)F (stereo not drawn) is ___
185 nM

Fill in: IC50 of COc1ccc(Cn2cnn(-c3ccc(-c4cn[nH]c4)cc3)c2=O)cc1F is ___
250 to 2000 nM

Fill in: IC50 of COc1cccc([C@H](C)N2CCN(c3ccc(-c4cn[nH]c4)cc3)C2=O)c1 is ___
20.1 to 200 nM

Fill in: IC50 of CC(CC1NC(=O)N([C@H]2C[C@@]3(C[C@H](Oc4nn5ccccc5c4C(N)=O)C3)C2)C1=O)C(F)(F)F (stereo partly drawn) is ___
203 nM

Fill in: IC50 of COc1cccc(NC2C(=O)N(c3ncc(-c4cn[nH]c4)c(OC)n3)CC23CCN(C(=O)OC(C)(C)C)CC3)c1 (stereo not drawn) is ___
250 to 3000 nM

Fill in: IC50 of COc1cc(F)cc(Cn2cnn(-c3ccc(-c4cn[nH]c4)c(OC)c3)c2=O)c1 is ___
< 5 nM

Fill in: IC50 of CCc1nc(N2CC3(CCN(C(=O)OC)CC3)N(Cc3cccc(F)c3C)C2=O)ccc1-c1cn[nH]c1 is ___
< 3 nM

Fill in: IC50 of [2H]C([2H])([2H])n1cc(-c2ccn3c(C(=O)N[C@H]4CC5(C4)C[C@H](c4n[nH]c(=O)c6ccccc64)C5)cnc3c2)cn1 (stereo partly drawn) is ___
0.2 to 2 nM

Fill in: IC50 of COc1cc(F)cc(CNC(=O)c2ccc3nc(-c4cn[nH]c4)ccn23)c1 is ___
≤ 50 nM

Fill in: IC50 of NC[C@@H](C(=O)Nc1cc2ccncc2s1)c1ccc(COC(=O)c2ccc(CCO[N+](=O)[O-])cc2)cc1 is ___
1.86 nM

Fill in: IC50 of Cc1c(C(=O)N[C@H]2C[C@]3(C2)C[C@H](Oc2nc(C4CC4)sc2C(N)=O)C3)cnn1-c1ccc(Cl)cc1 (stereo partly drawn) is ___
25 nM

Fill in: IC50 of COc1cc(N2CCC3(CCN(C(=O)c4cc(C)cs4)CC3)C2=O)ccc1-c1cn[nH]c1 is ___
109 nM

Fill in: IC50 of O=c1n(CCc2ccccc2F)ccn1-c1ccc(-c2cn[nH]c2)cc1 is ___
20.1 to 200 nM

Fill in: IC50 of COc1cc(-n2ncn(C(C)c3ccccc3)c2=O)ccc1-c1cn[nH]c1 (stereo not drawn) is ___
< 5 nM

Fill in: IC50 of CC(C)CNC(=O)COc1cc(F)cc([C@@H](CO)NC(=O)N2CCc3cc(-c4cn[nH]c4)c(F)cc32)c1 is ___
≤ 50 nM

Fill in: IC50 of O=C(Cc1ncc[nH]1)Nc1cccc(-n2nc(Nc3ccc4[nH]ncc4c3)c3ccccc32)c1 is ___
300 to 3000 nM

Fill in: IC50 of [H][C@]1(c2n[nH]c(=O)c3ccccc32)C[C@]2(C[C@@H](NC(=O)c3ccc4[nH]cnc4c3)C2)C1 (stereo partly drawn) is ___
5.1 to 15 nM

Fill in: IC50 of NC(=O)c1cccnc1O[C@H]1C[C@]2(C1)C[C@H](N1C(=O)CN(c3cccc(F)c3)C1=O)C2 (stereo partly drawn) is ___
6 nM

Fill in: IC50 of [H][C@]1(c2n[nH]c(=O)c3ccccc32)C[C@]2(C[C@@H](NC(=O)c3ccc4c(cnn4C)c3)C2)C1 (stereo partly drawn) is ___
15.1 to 100 nM

Fill in: IC50 of Cc1sc(NC(=O)Cc2ccc(Oc3ncccc3C(N)=O)c(F)c2)nc1-c1ccc(S(C)(=O)=O)cc1 is ___
84 nM

Fill in: IC50 of O=C1OC(c2ccc(F)cc2)CN1c1ccc(-c2n[nH]c(=O)c3ccccc23)cc1 (stereo not drawn) is ___
500 to 2000 nM

Fill in: IC50 of O=C1CN(c2ccc(-c3cn[nH]c3)cc2)C(=O)N1Cc1cc(F)ccc1F is ___
20.1 to 200 nM

Fill in: IC50 of Cc1sc(NC(=O)Cc2ccc(Oc3ncccc3C(N)=O)c(Cl)c2)nc1-c1ccc(F)nc1 is ___
17 nM

Fill in: IC50 of COc1cccc(CN2CCN(c3ccc(-c4ccnc(F)c4)c(OC)n3)C2=O)c1 is ___
2.1 to 20 nM

Fill in: IC50 of COc1cccc(C(C(=O)O)n2ccn(-c3ccc(-c4cn[nH]c4)c(OC)c3)c2=O)c1 (stereo not drawn) is ___
200 to 2000 nM

Fill in: IC50 of COc1cc(C(=O)N[C@H](C)c2ccc3c(c2)CCO3)ccc1-c1cn[nH]c1 is ___
27 nM

Fill in: IC50 of COc1cc(N2CCC3(CCN(C(=O)c4ccc(N5CCN(Cc6cccn6C)CC5)cc4)CC3)C2=O)ccc1-c1cn[nH]c1 is ___
0.9 nM

Fill in: IC50 of [H][C@]1(c2n[nH]c(=O)c3ccccc32)C[C@]2(C[C@@H](NC(=O)c3cn4ccc(Br)cc4n3)C2)C1 (stereo partly drawn) is ___
15.1 to 100 nM

Fill in: IC50 of COc1cc(NC(=O)[C@H](N)Cc2ccccc2Cl)ccc1-c1cn[nH]c1 is ___
37.5 nM
